test: Tissue distribution of THP, DHC and protopine in rat tissues after gastric gavage administration (HPLC-UV, non-compartmental analysis)
Type: in vivo, Wistar male rats
run.parameters: male, Wistar, po, 4.52 mg/kg, rat lung, read-out: AUC0–24 h of protopine
property.measured: AUC(0-t) (ng·h/mL)
Give the number; ng·h/mL is assumed, so skip it.

**Query** Quote AUC(0-t) reported for CN1CCc2cc3c(cc2C(=O)Cc2ccc4c(c2C1)OCO4)OCO3 please.
**Result** 50200

###

test: Tissue distribution of THP, DHC and protopine in rat tissues after gastric gavage administration (HPLC-UV, non-compartmental analysis)
Format: in vivo, Wistar male rats
run.parameters: male, Wistar, po, 26.1 mg/kg, rat liver, read-out: Tmax of DHC
property.measured: Tmax (min)
Give the number; min is assumed, so skip it.

**Query** Quote Tmax reported for COc1cc2c(cc1OC)-c1c(C)c3ccc(OC)c(OC)c3c[n+]1CC2 [DHC, dehydrocorydaline] please.
**Result** 15
